# Experimental System: T1, nSR100 (Mus musculus, UniProt Q8BKA3)
# T1 construct: host or cells: mouse N2A cells
# T1 sequence (Q8BKA3 1-608): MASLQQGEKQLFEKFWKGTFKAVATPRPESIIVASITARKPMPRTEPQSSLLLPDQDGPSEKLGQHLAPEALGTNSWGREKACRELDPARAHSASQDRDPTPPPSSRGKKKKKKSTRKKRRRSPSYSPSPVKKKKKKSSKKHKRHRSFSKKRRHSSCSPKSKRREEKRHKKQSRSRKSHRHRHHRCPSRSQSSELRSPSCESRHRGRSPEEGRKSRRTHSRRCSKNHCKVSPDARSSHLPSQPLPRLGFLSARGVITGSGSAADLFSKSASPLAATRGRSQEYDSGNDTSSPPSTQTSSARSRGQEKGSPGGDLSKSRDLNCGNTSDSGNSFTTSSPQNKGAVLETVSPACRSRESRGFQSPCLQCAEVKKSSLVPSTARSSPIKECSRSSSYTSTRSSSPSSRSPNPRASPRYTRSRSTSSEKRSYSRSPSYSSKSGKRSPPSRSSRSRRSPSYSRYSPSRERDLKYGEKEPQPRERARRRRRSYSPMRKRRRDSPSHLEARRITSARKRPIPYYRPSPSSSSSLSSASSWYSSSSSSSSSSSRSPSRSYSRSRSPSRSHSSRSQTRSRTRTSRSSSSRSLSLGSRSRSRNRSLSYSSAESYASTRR
# Assay Text: AP-MS nSR100 interaction partners from mouse N2A cells (Table 5)
# Assay type: binding
# Assay Context: bait Srrm4, biological replicate 2 (second number of the cell), AP-MS
Reported Property: Spectra (number of spectra for the prey in the purification of the bait)
Keep the answer to the number alone.

{"Molecule": "Rnps1 (protein, UniProt Q99M28 1-305, looked up) RNA-binding protein with …: MDLSGVKKKSLLGVKENNKKSSTRAPSPTKRKDRSDEKSKDRSKDKGATKESSEKDRGRDKTRKRRSASSGSSSTRSRSSSTSSSGSSTSTGSSSGSSSSSASSRSGSSSTSRSSSSSSSSGSPSPSRRRHDNRRRSRSKSKPPKRDEKERKRRSPSPKPTKVHIGRLTRNVTKDHIMEIFSTYGKIKMIDMPVERMHPHLSKGYAYVEFENPDEAEKALKHMDGGQIDGQEITATAVLAPWPRPPPRRFSPPRRMLPPPPMWRRSPPRMRRRSRSPRRRSPVRRRSRSPGRRRHRSRSSSNSSR", "Test Result": 25}

Enquiry: Recorded Spectra (number of spectra for the prey in the purification of the bait) for Pgam5 (protein, UniProt Q8BX10 1-288, looked up) Serine/threonine-protein …: MAFRQALQLAACGLAGGSAAVLFSAVAVGKPRGGGDADTRATEPPAWTGARAGRGVWDTNWDRREPLSLINLKKRNVESGEDELTSRLDHYKAKATRHIFLIRHSQYHVDGSLEKDRTLTPLGREQAELTGLRLASLGLKFNKIVHSSMTRAVETTDIISKHLPGVSRVSTDLLREGAPIEPDPPVSHWKPEAVQYYEDGARIEAAFRNYIHRADARQEEDSYEIFICHANVIRYIVCRALQFPPEGWLRLSLNNGSITHLVIRPNGRVALRTLGDTGFMPPDKITRS , please?
Return: 12

Values were extracted from patent US10772928B2.
